Data credit: patent US20200317776A1

Experimental System: T1, human TREM2 expressed on cells (human, UniProt Q9NZC2 19-230)
T1 sequence: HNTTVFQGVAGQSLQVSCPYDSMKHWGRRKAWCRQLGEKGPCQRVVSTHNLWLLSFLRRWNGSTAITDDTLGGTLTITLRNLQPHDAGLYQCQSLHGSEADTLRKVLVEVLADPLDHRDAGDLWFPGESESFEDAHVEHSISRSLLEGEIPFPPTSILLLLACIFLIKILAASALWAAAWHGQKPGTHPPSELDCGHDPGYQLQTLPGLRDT
Protocol Text: cell-based or functional assay
Recorded Endpoint: Mac viability (AUC)
Please respond with the number in AUC and leave the unit unwritten.

Consider the binder shown here: AL2p-40 (antibody, IgG1, V domains shown, Fab and IgG formats under one id) VH: QVQLVQSGAEVKKPGSSVKVSCKASGYAFSSHWMNWVRQAPGQGLEWMGRIYPGGGDTNYAQKFRGRVTITADESTSTAYMELSSLRSEDTAVYYCARLLRNQPGASYAMDYWGQGTLVTVSS VL: GVVMTQTPLSLSVTPGQPASISCRTSRSLVHSNRYTYLHWYLQKPGQSPQLLIYKVSNRRSGVPDRFSGSGSGTDFTLKISRVEAEDVGVYYCSQSTRVPYTFGQGTKLEIK What is its recorded Mac viability (AUC)?
63200

Consider the binder shown here: AL2p-38 (antibody, V domains shown, Fab and IgG formats under one id) VH: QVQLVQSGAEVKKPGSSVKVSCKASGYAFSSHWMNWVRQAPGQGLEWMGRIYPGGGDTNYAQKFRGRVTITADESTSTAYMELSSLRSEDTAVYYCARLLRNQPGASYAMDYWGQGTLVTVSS VL: GVVMTQTPLSLSVTPGQPASISCRSSRSLVHSNRYTYLHWYLQKPGQSPQLLIYKVSNRRSGVPDRFSGSGSGTDFTLKISRVEAEDVGVYYCSQSTRVPYTFGQGTKLEIK What is its recorded Mac viability (AUC)?
39000

Consider the binder shown here: AL2p-31 (antibody, V domains shown, Fab and IgG formats under one id) VH: QVQLVQSGAEVKKPGSSVKVSCKASGYAFSSQWMNWVRQAPGQGLEWMGRIYPGGGDTNYARKFQGRVTITADESTSTAYMELSSLRSEDTAVYYCARLLRNQPGESYAMDYWGQGTLVTVSS VL: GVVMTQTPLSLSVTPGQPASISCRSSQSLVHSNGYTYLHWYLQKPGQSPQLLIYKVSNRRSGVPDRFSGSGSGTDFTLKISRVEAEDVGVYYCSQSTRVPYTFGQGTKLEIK What is its recorded Mac viability (AUC)?
83700

Consider the binder shown here: AL2p-56 (antibody, V domains shown, same VH/VL entries as AL2p-55; Fab and IgG formats under one id) VH: EVQLVQSGAEVKKPGSSVKVSCKASGYAFSSHWMNWVRQAPGQGLEWMGRIYPGEGDTNYAQKFHGRVTITADESTSTAYMELSSLRSEDTAVYYCARLLRNKPGESYAMDYWGQGTLVTVSS VL: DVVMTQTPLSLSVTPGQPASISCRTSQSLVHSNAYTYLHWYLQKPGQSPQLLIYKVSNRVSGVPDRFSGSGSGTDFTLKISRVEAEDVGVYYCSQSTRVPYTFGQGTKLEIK What is its recorded Mac viability (AUC)?
-7620

Consider the binder shown here: AL2p-46 (antibody, V domains shown, Fab and IgG formats under one id) VH: QVQLVQSGAEVKKPGSSVKVSCKASGYAFSSDWMNWVRQAPGQGLEWMGRIYPGEGDTNYARKFQGRVTITADESTSTAYMELSSLRSEDTAVYYCARLLRNKPGESYAMDYWGQGTLVTVSS VL: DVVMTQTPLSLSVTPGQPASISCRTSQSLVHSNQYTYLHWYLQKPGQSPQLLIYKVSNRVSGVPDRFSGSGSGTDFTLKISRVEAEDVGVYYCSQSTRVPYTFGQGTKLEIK What is its recorded Mac viability (AUC)?
6040

Consider the binder shown here: AL2p-52 (antibody, V domains shown, Fab and IgG formats under one id) VH: EVQLVQSGAEVKKPGSSVKVSCKASGYAFSSHWMNWVRQAPGQGLEWMGRIYPGEGDTNYAQKFHGRVTITADESTSTAYMELSSLRSEDTAVYYCARLLRNQPGESYAMDYWGQGTLVTVSS VL: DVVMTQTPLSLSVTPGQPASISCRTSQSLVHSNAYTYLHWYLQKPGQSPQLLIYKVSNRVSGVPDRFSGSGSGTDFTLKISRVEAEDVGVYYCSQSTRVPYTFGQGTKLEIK What is its recorded Mac viability (AUC)?
-13500
